- tested.on: TRIM33(PHD, Bromo.) (Homo sapiens, UniProt Q9UPN9)
- Construct: TRIM33(PHD, Bromo.)
- Sequence (Q9UPN9 whole entry): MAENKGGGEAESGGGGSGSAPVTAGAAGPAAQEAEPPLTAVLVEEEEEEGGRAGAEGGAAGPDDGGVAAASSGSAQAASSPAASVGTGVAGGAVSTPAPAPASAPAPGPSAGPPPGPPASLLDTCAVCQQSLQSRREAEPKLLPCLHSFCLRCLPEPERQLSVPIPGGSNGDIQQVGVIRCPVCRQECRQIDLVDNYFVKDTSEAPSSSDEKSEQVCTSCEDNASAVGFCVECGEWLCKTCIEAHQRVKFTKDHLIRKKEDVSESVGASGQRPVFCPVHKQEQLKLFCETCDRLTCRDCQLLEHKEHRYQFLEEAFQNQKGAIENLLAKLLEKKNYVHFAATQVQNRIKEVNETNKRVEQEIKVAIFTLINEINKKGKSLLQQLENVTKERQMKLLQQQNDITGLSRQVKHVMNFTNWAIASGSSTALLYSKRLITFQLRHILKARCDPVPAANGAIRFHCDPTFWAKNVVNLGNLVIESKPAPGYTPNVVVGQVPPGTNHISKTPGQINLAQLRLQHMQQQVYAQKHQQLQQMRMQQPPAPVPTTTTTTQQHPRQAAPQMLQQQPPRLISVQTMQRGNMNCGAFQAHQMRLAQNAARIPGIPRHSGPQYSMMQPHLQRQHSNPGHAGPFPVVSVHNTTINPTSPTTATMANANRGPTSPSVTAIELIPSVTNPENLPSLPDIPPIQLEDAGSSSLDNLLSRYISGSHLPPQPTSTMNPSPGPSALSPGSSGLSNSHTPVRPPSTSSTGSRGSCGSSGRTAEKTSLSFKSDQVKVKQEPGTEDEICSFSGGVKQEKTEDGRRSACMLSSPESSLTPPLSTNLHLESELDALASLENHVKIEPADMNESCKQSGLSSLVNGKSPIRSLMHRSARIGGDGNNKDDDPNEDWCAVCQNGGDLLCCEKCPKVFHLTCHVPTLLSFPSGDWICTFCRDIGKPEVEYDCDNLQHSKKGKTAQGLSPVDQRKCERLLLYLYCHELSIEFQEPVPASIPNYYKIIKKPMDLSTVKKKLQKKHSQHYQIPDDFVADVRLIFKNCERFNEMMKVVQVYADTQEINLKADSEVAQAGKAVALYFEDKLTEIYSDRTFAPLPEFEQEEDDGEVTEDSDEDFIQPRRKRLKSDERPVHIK
- run.description: BromoKdMAX (BROMOscan) TRIM33(PHD, Bromo.)
- Type: binding
- test.conditions: TRIM33(PHD, Bromo.) (Entrez TRIM33)
outcome.measure: Kd

Provide Kd value for the following compound: COc1cncc(-c2cc(Nc3cccc(F)c3)nc([C@@H]3CC[C@H](C)N(C(C)=O)C3)n2)c1
> 10 µM
